Molecular target: AMP-activated protein kinase, AMPK (Homo sapiens) (UniProt P54646+O43741+P54619+Q9UGJ0+Q9Y478+Q13131+Q9UGI9)
Test: AMP-dependent Kinase enzyme assay. An in vitro enzyme assay that detects ADP turnover that is directly proportional to AMPK activity. This uses naive AMPK that is activated during the assay with MK-8722
Type: functional
Set-up: scale not given: direction of the effect not stated beside the values
Conditions: 30 µM
assay_endpoint: Percent Effect (%)
Give just the number in %; leave the unit off.

Recorded Percent Effect, per entry:
INSERT INTO measurements (compound, readout_value) VALUES
  ('N#Cc1ccccc1OCCN1CCCCC1Cn1cncn1 (centres undefined)', -28.6),
  ('O=C(c1ccco1)N1CCC2(CCOC2)C1 (centres undefined)', -4.74),
  ('CCOc1cc(C)ccc1NC(=O)N(C)Cc1cnn(C)c1', -11.8),
  ('O=C(c1ccc(C2CCCO2)s1)N1CCN(c2ccccc2F)CC1 (centres undefined)', -2.01),
  ('CC(=O)N1CCCCC1c1cc(C(=O)N2CCOCC2)[nH]n1 (centres undefined)', 11),
  ('Cc1cc(F)cc(S(=O)(=O)NCCCN2CCC(O)CC2)c1', 0.172),
  ('O=S(=O)(C1CC1)N1CC[C@]2(C[C@@H](Oc3ccccn3)CO2)C1', 2.58),
  ('Cc1cccc(Cn2ccc(NS(C)(=O)=O)n2)c1', -2.37);

GET /values?readout=Percent Effect&item= COCCC1COC2(CCN(C(=O)c3ccco3)CC2)C1 (centres undefined)
5.93

Next up: Cc1csc(N2CCCN(C(=O)C(C)n3ccnc3)CC2)n1 (centres undefined)
5.77

Same read-out for Cn1c(Cn2ccnc2)nnc1C1CCCN(C2CCCCC2)C1 (centres undefined) ?
5.59

Also `CN(C)C(=O)CN(C)C(=O)c1cnc(Cc2ccc(F)cc2)s1` ?
-1.38

// query: `Cc1cc(NC(=O)CN2CCc3nn(C)c(=O)cc3C2)on1`
-63.3

Then this compound: CC(=O)Nc1nc(C(=O)N2CCCC2c2noc(C)n2)cs1 (centres undefined)
10.4

Another compound to look at: O=C(NCCNCC1CNc2ccnn2C1)c1ccc(F)cc1 (centres undefined)
-6.99

// repeat for O=C(NCc1cc(=O)n2c(n1)CN(CC1CCOC1)CCC2)C1CC1 (centres undefined) and report
-1.09

Same thing, different compound: Cc1nn(C)c(C)c1NC(=O)CN1CCCC1c1noc(C2CC2)n1 (centres undefined)
-14.8

Try the compound `Cc1ccccc1C1(C(=O)NCCN2CCCC2)CCOCC1`
-6.54

Follow-up entry: CCc1cnc(CN(C(C)=O)C2CCN(CCc3cnn(C)c3)C2)o1 (centres undefined)
-1.21
